- Tested on: Blood
- Protocol text: Inhibition of arachidonic acid-induced platelet aggregation in human blood after 3 mins by turbidimetric assay
- Assay type: functional, tissue-based
- Measurement parameters: 0.05 h
pIC50: −log10 of the molar value.

[
  {
    "Given smiles": "CCCOC(=O)c1ccc(F)cc1NC(=O)c1ccccc1C",
    "Target entity": "Blood",
    "Relation": "=",
    "pIC50": 5.70
  },
  {
    "Given smiles": "CCCOC(=O)c1ccc(C)cc1NC(=O)c1ccccc1OC",
    "Target entity": "Blood",
    "Relation": "=",
    "pIC50": 4.98
  },
  {
    "Given smiles": "CC(C)OC(=O)c1ccc(Cl)cc1NC(=O)c1ccccc1F",
    "Target entity": "Blood",
    "Relation": "<",
    "pIC50": 4.00
  },
  {
    "Given smiles": "CCOC(=O)c1ccc(Cl)cc1NC(=O)c1ccccc1C",
    "Target entity": "Blood",
    "Relation": "=",
    "pIC50": 5.31
  },
  {
    "Given smiles": "CCCCOC(=O)c1ccc(Cl)cc1NC(=O)c1ccccc1OC",
    "Target entity": "Blood",
    "Relation": "<",
    "pIC50": 4.00
  },
  {
    "Given smiles": "CCCCOC(=O)c1ccc(Cl)cc1NC(=O)c1ccccc1C",
    "Target entity": "Blood",
    "Relation": "=",
    "pIC50": 5.33
  },
  {
    "Given smiles": "CCOC(=O)c1ccc(Cl)cc1NC(=O)c1c(F)cccc1F",
    "Target entity": "Blood",
    "Relation": "=",
    "pIC50": 6.05
  },
  {
    "Given smiles": "CCCOC(=O)c1ccc(Cl)cc1NC(=O)c1ccccc1OC",
    "Target entity": "Blood",
    "Relation": "=",
    "pIC50": 4.63
  },
  {
    "Given smiles": "CCCNC(=O)c1ccc(Cl)cc1NC(=O)c1c(F)cccc1F",
    "Target entity": "Blood",
    "Relation": "=",
    "pIC50": 5.54
  },
  {
    "Given smiles": "CCCOC(=O)c1ccc(C)cc1NC(=O)c1ccccc1Br",
    "Target entity": "Blood",
    "Relation": "=",
    "pIC50": 5.51
  },
  {
    "Given smiles": "CCCCOC(=O)c1ccc(Cl)cc1NC(=O)c1c(Cl)cccc1Cl",
    "Target entity": "Blood",
    "Relation": "<",
    "pIC50": 4.00
  },
  {
    "Given smiles": "CCCCOC(=O)c1ccc(Cl)cc1NC(=O)c1ccccc1Cl",
    "Target entity": "Blood",
    "Relation": "=",
    "pIC50": 5.68
  }
]

---

Entries and their measured IC50 follow.
- Tested on: Blood
- Protocol text: Inhibition of arachidonic acid-induced platelet aggregation in human blood after 3 mins by turbidimetric assay
- Type: functional, tissue-based
- Measurement parameters: 0.05 h

[
  {
    "Given smiles": "COC(=O)c1ccc(Cl)cc1NC(=O)c1c(Cl)cccc1Cl",
    "IC50 [µM]": 12.6
  },
  {
    "Given smiles": "CC(C)OC(=O)c1ccc(Cl)cc1NC(=O)c1ccccc1Cl",
    "IC50 [µM]": 82.2
  },
  {
    "Given smiles": "CCCOC(=O)c1ccc(C)cc1NC(=O)c1ccccc1Cl",
    "IC50 [µM]": 1.6
  },
  {
    "Given smiles": "CCOC(=O)c1ccc(Cl)cc1NC(=O)c1ccccc1Cl",
    "IC50 [µM]": 1
  },
  {
    "Given smiles": "CCCNC(=O)c1ccc(Cl)cc1NC(=O)c1ccccc1Cl",
    "IC50 [µM]": 3.4
  },
  {
    "Given smiles": "CCCNC(=O)c1ccc(Cl)cc1NC(=O)c1ccccc1OC",
    "IC50 [µM]": 6
  }
]

---

- Test system: Blood
- Protocol text: Inhibition of arachidonic acid-induced platelet aggregation in human blood after 3 mins by turbidimetric assay
- Format: functional, tissue-based
- Measurement parameters: 0.05 h
pIC50: −log10 of the molar value.

[
  {
    "Compound": "COc1ccc2c(c1)c(CC(=O)O)c(C)n2C(=O)c1ccc(Cl)cc1 [INDOMETHACIN]",
    "Target entity": "Blood",
    "pIC50": 6.92
  },
  {
    "Compound": "CC(=O)Oc1ccccc1C(=O)O [ASPIRIN]",
    "Target entity": "Blood",
    "pIC50": 3.82
  },
  {
    "Compound": "CCCOC(=O)c1ccc([N+](=O)[O-])cc1NC(=O)c1ccccc1F",
    "Target entity": "Blood",
    "pIC50": 5.33
  },
  {
    "Compound": "CCCNC(=O)c1ccc(Cl)cc1NC(=O)c1ccccc1C",
    "Target entity": "Blood",
    "pIC50": 5.08
  },
  {
    "Compound": "CCCCNC(=O)c1ccc(Cl)cc1NC(=O)c1c(F)cccc1F",
    "Target entity": "Blood",
    "pIC50": 5.46
  },
  {
    "Compound": "CCCOC(=O)c1ccc(F)cc1NC(=O)c1ccccc1F",
    "Target entity": "Blood",
    "pIC50": 5.80
  },
  {
    "Compound": "CCCOC(=O)c1ccc(F)cc1NC(=O)c1ccccc1Cl",
    "Target entity": "Blood",
    "pIC50": 5.80
  },
  {
    "Compound": "CCCOC(=O)c1ccc(Cl)cc1NC(=O)c1c(F)cccc1F",
    "Target entity": "Blood",
    "pIC50": 6.30
  },
  {
    "Compound": "CCCOC(=O)c1ccc(Cl)cc1NC(=O)c1ccccc1Br",
    "Target entity": "Blood",
    "pIC50": 5.46
  },
  {
    "Compound": "CCCCOC(=O)c1ccc(Cl)cc1NC(=O)c1ccccc1F",
    "Target entity": "Blood",
    "pIC50": 5.52
  },
  {
    "Compound": "CCCOC(=O)c1ccc([N+](=O)[O-])cc1NC(=O)c1ccccc1C",
    "Target entity": "Blood",
    "pIC50": 5.33
  }
]

---

- Test system: Blood
- Protocol text: Inhibition of arachidonic acid-induced platelet aggregation in human blood after 3 mins by turbidimetric assay
- Assay type: functional, tissue-based
- Measurement parameters: 0.05 h
pIC50: −log10 of the molar value.
Parameter measured: pIC50

[
  {
    "Given smiles": "CCCOC(=O)c1ccc([N+](=O)[O-])cc1NC(=O)c1ccccc1Cl",
    "Data value": 5.70
  },
  {
    "Given smiles": "CCCOC(=O)c1ccc(C)cc1NC(=O)c1ccccc1C",
    "Data value": 5.24
  },
  {
    "Given smiles": "CCCOC(=O)c1ccc(F)cc1NC(=O)c1ccccc1Br",
    "Data value": 5.48
  },
  {
    "Given smiles": "CCOC(=O)c1ccc(Cl)cc1NC(=O)c1ccccc1F",
    "Data value": 5.42
  },
  {
    "Given smiles": "CCOC(=O)c1ccc(F)cc1NC(=O)c1ccccc1Cl",
    "Data value": 5.39
  },
  {
    "Given smiles": "CCCOC(=O)c1ccc(Cl)cc1NC(=O)c1ccccc1F",
    "Data value": 5.80
  }
]

---

- System: Blood
- Protocol text: Inhibition of arachidonic acid-induced platelet aggregation in human blood after 3 mins by turbidimetric assay
- Type: functional, tissue-based
- Measurement parameters: 0.05 h
Labelling field: enter true if recorded IC50 is less than 2000 nM. Enter false if it equals or exceeds that cut-off.

[
  {
    "Given smiles": "COC(=O)c1ccc(Cl)cc1NC(=O)c1c(F)cccc1F",
    "Assigned category": "true"
  },
  {
    "Given smiles": "CCCOC(=O)c1ccc(Cl)cc1NC(=O)c1ccccc1C",
    "Assigned category": "false"
  },
  {
    "Given smiles": "CCCOC(=O)c1ccc([N+](=O)[O-])cc1NC(=O)c1ccccc1Br",
    "Assigned category": "false"
  },
  {
    "Given smiles": "CCCOC(=O)c1ccc(Cl)cc1NC(=O)c1c(Cl)cccc1Cl",
    "Assigned category": "false"
  },
  {
    "Given smiles": "CCCNC(=O)c1ccc(Cl)cc1NC(=O)c1ccccc1Br",
    "Assigned category": "true"
  },
  {
    "Given smiles": "CCCNC(=O)c1ccc(Cl)cc1NC(=O)c1ccccc1F",
    "Assigned category": "true"
  },
  {
    "Given smiles": "CCOC(=O)c1ccc(Cl)cc1NC(=O)c1ccccc1Br",
    "Assigned category": "false"
  }
]

src = ChEMBL document CHEMBL1150253
